Measured inhibition in vivo at 50 mg/kg accompanies every entry in the list below.
- Test system: fluid secretion caused by the enterotoxin(s) present in culture filtrate from an enteropathogenic strain of E. coli
- protocol: animal or person
- Assay type: in vivo, infant mice
- recorded.conditions: Mus musculus, po
Counter-ions that a name gives are not always drawn.

{"compound": "NCc1cc(Cl)c(N=C2NCCN2)c(Cl)c1 [Example 14]", "endpoint.unit": "%", "inhibition in vivo at 50 mg/kg": 38}
{"compound": "CCN(CC)Cc1cc(Cl)c(N=C2NCCN2)c(Cl)c1 [Example 15]", "endpoint.unit": "%", "inhibition in vivo at 50 mg/kg": 28}
{"compound": "Nc1cc(Cl)c(NC2=NCCN2)c(Cl)c1 [p-Amino clonidine dihydrochloride, p-amino Clonidine dihydrochloride]", "endpoint.unit": "%", "inhibition in vivo at 50 mg/kg": 78}
{"compound": "CCNc1cc(Cl)c(NC2=NCCN2)c(Cl)c1 [R5 H, R6 H, Ra p-NHEt, Rb o-Cl, R11 Cl]", "endpoint.unit": "%", "inhibition in vivo at 50 mg/kg": 79}
{"compound": "CNC(=Nc1cc(Cl)c(NC2=NCCN2)c(Cl)c1)NC [Example 17]", "endpoint.unit": "%", "inhibition in vivo at 50 mg/kg": 37}
